- Method Description: LogP by HPLC on reversed phase columns (EEC directive 79/831 Annex V.A8)
- Format: physicochemical
- Conditions Used: reversed-phase HPLC column, LC-UV, acidic range, 0.1% formic acid in water and acetonitrile; read-out: logP (HCOOH) [a]
Property Measured: chromatographic logP

(1) NCC(F)(F)c1ncc(-c2ccc(F)cc2)cc1Cl
(2) N#Cc1ccc(-c2cnc(C(F)(F)CNC(=O)c3ccccc3C(F)(F)F)c(Cl)c2)cc1
Returns the identifier with the smallest measured chromatographic logP among 1 and 2 . I would appreciate it if you answered with the label of your choice.
1

====

# chromatographic logP values compiled below
- Method Description: LogP by HPLC on reversed phase columns (EEC directive 79/831 Annex V.A8)
- Assay type: physicochemical
- Conditions Used: logP (HCOOH) [a]
Provide a numeric answer; units are not to be included.

Would you please look over these solved cases?
In [3]: df
Out[3]:
                                   compound  meas_value
0  O=C(NCC(F)(F)c1ncc(-c2ccc(F)c(F)c2)cc1Cl)c1ccccc1C(F)(F)F [Example 14]        3.84
1  O=C(NCC(F)(F)c1ncc(-c2ccccc2F)cc1Cl)c1ccccc1C(F)(F)F [Example 13]        3.73
2  O=C(NCC(F)(F)c1ncc(-c2ccc(OC(F)F)cc2)cc1Cl)c1ccccc1C(F)(F)F [Example 4]        3.78

Pending compound:
Which chromatographic logP is reported for this compound? O=C(NCC(F)(F)c1ncc(-c2ccccc2Cl)cc1Cl)c1ccccc1C(F)(F)F [Example 16]
4

====

- Method Description: LogP by HPLC on reversed phase columns (EEC directive 79/831 Annex V.A8)
- Assay type: physicochemical
- Conditions Used: LC-UV, neutral range, 0.001 molar ammonium acetate solution in water and acetonitrile; read-out: logP [b]
Property Measured: chromatographic logP
Provide a numeric answer; units are not to be included.

Which chromatographic logP is reported for this molecule? `CN1CCN(c2ccc(-c3cnc(C(F)(F)CNC(=O)c4ccccc4C(F)(F)F)c(Cl)c3)cc2)CC1`
3.39

====

- Method Description: LogP by HPLC on reversed phase columns (EEC directive 79/831 Annex V.A8)
- Type: physicochemical
- Conditions Used: reversed-phase HPLC column, LC-UV, neutral range, 0.001 molar ammonium acetate solution in water and acetonitrile; read-out: logP [b]
Property Measured: chromatographic logP
Provide a numeric answer; units are not to be included.

Which chromatographic logP is reported for this molecule? NCC(F)(F)c1ncc(-c2ccc(F)cc2)cc1Cl [INT-1]
2.61

====

- Method Description: LogP by HPLC on reversed phase columns (EEC directive 79/831 Annex V.A8)
- Assay type: physicochemical
- Conditions Used: LC-UV, acidic range, 0.1% formic acid in water and acetonitrile; read-out: logP (HCOOH) [a]
- Description: Calibration was done with straight-chain alkan2-ones (with 3 to 16 carbon atoms) with known Log P values (measurement of Log P values using retention times with linear interpolation between successive alkanones). Lambda-max-values were determined using UV-spectra from 200 nm to 400 nm and the peak values of the chromatographic signals.
Property Measured: chromatographic logP
Provide a numeric answer; units are not to be included.

Would you please look over these solved cases?
>>> df
                                   compound  meas_value
0  CN1CCN(c2ccc(-c3cnc(C(F)(F)CNC(=O)c4ccccc4C(F)(F)F)c(Cl)c3)cc2)CC1 [Example 31]        1.78
1  O=C(NCC(F)(F)c1ncc(-c2ccc(N3CCOCC3)cc2)cc1Cl)c1ccccc1C(F)(F)F [Example 32]        3.59
2  Cc1ccc(-c2cnc(C(C)(F)CNC(=O)c3ccccc3C(F)(F)F)c(Cl)c2)cc1 (centres unmarked) [Example 29]        4.35

Pending compound:
Which chromatographic logP is reported for this compound? O=C(NCC(F)(F)c1ncc(-c2ccc(Cl)cc2)cc1Cl)c1ccccc1C(F)(F)F [Example 2]
4.17

====

# chromatographic logP values compiled below
- Method Description: LogP by HPLC on reversed phase columns (EEC directive 79/831 Annex V.A8)
- Type: physicochemical
- Conditions Used: LC-UV, acidic range, 0.1% formic acid in water and acetonitrile; read-out: logP (HCOOH) [a]
- Description: Calibration was done with straight-chain alkan2-ones (with 3 to 16 carbon atoms) with known Log P values (measurement of Log P values using retention times with linear interpolation between successive alkanones). Lambda-max-values were determined using UV-spectra from 200 nm to 400 nm and the peak values of the chromatographic signals.
Provide a numeric answer; units are not to be included.

>>> df
                                   molecule  meas_value
0  COc1ccc(-c2cnc(C(F)(F)CNC(=O)c3ccccc3C(F)(F)F)c(Cl)c2)cc1Cl        3.94
1  CC(F)(CNC(=O)c1ccccc1C(F)(F)F)c1ncc(-c2ccc(F)cc2)cc1Cl (stereo not shown)        3.96
2  O=C(NCCc1ncc(-c2ccc(Cl)cc2)cc1Cl)c1ccccc1C(F)(F)F        3.97

Pending molecule:
Which chromatographic logP is reported for this molecule? `COc1ccc(-c2cnc(C(F)(F)CNC(=O)c3ccccc3C(F)(F)F)c(Cl)c2)cc1`
3.68

====

- Method Description: LogP by HPLC on reversed phase columns (EEC directive 79/831 Annex V.A8)
- Format: physicochemical
- Conditions Used: LC-UV, acidic range, 0.1% formic acid in water and acetonitrile; read-out: logP (HCOOH) [a]
# chromatographic logP values compiled below
Provide a numeric answer; units are not to be included.

Would you please look over these solved cases?
>>> df
                                   molecule     property_measured  meas_value
0  CNc1ccc(-c2cnc(C(F)(F)CNC(=O)c3ccccc3C(F)(F)F)c(Cl)c2)cc1  chromatographic logP        3.39
1  CSc1ccc(-c2cnc(C(F)(F)CNC(=O)c3ccccc3C(F)(F)F)c(Cl)c2)cc1  chromatographic logP         4.1
2  O=C(NCC(F)(F)c1ncc(-c2ccc(F)c(C(F)(F)F)c2)cc1Cl)c1ccccc1C(F)(F)F  chromatographic logP        4.19
3  CC(F)(CNC(=O)c1cccnc1C(F)(F)F)c1ncc(-c2ccc(Cl)cc2)cc1Cl (centres unmarked)  chromatographic logP        3.83

Which chromatographic logP is reported for this molecule? `O=C(NCC(F)(F)c1ncc(-c2ccc(N3CCCC3)cc2)cc1Cl)c1ccccc1C(F)(F)F`
4.83

Which chromatographic logP is reported for this molecule? CC(F)(CNC(=O)c1ccccc1C(F)(F)F)c1ncc(-c2ccccc2)cc1Cl (centres unmarked)
3.92

Which chromatographic logP is reported for this molecule? `Cc1ccccc1-c1cnc(C(F)(F)CNC(=O)c2ccccc2C(F)(F)F)c(Cl)c1`
4

Which chromatographic logP is reported for this molecule? `O=C(NCC(F)(F)c1ncc(-c2ccc(F)cc2)cc1Cl)c1cccnc1C(F)(F)F`
3.29

====

- Method Description: LogP by HPLC on reversed phase columns (EEC directive 79/831 Annex V.A8)
- Assay type: physicochemical
- Conditions Used: logP (HCOOH) [a]
Property Measured: chromatographic logP
Provide a numeric answer; units are not to be included.

Would you please look over these solved cases?
In [3]: df
Out[3]:
                                   compound     property_measured  meas_value
0  O=C(NCC(F)(F)c1ncc(-c2cccc(Cl)c2)cc1Cl)c1ccccc1C(F)(F)F [Example 3]  chromatographic logP        4.17
1  O=C(NCC(F)(F)c1ncc(-c2ccc3c(c2)OCO3)cc1Cl)c1ccccc1C(F)(F)F [Example 8]  chromatographic logP        3.53
2  O=C(NCC(F)(F)c1ncc(-c2ccc(Cl)cc2Cl)cc1Cl)c1ccccc1C(F)(F)F [Example 15]  chromatographic logP        4.57
3  O=C(NCC(F)(F)c1ncc(-c2ccccc2)cc1Cl)c1ccccc1C(F)(F)F [Example 5]  chromatographic logP        3.75
4  O=C(NCC(F)(F)c1ncc(-c2ccc(F)cc2)cc1Cl)c1ccccc1C(F)(F)F [Example 24]  chromatographic logP        3.74
5  O=C(NCC(F)(F)c1ncc(-c2cc(Cl)cc(Cl)c2)cc1Cl)c1ccccc1C(F)(F)F [Example 11]  chromatographic logP        4.64
6  O=C(NCC(F)(F)c1ncc(-c2cccc(C(F)(F)F)c2)cc1Cl)c1ccccc1C(F)(F)F [Example 10]  chromatographic logP        4.17

Pending compound:
Which chromatographic logP is reported for this compound? O=C(NCC(F)(F)c1ncc(-c2cc(F)cc(F)c2)cc1Cl)c1ccccc1C(F)(F)F [Example 12]
3.89

====

- Method Description: LogP by HPLC on reversed phase columns (EEC directive 79/831 Annex V.A8)
- Format: physicochemical
- Conditions Used: LC-UV, acidic range, 0.1% formic acid in water and acetonitrile; read-out: logP (HCOOH) [a]
# chromatographic logP values compiled below
Provide a numeric answer; units are not to be included.

>>> df
                                   molecule  meas_value
0  O=C(NCC(F)(F)c1ncc(-c2ccc(SC(F)(F)F)cc2)cc1Cl)c1ccccc1C(F)(F)F [Example 39]        4.65
1  O=C(NCC(F)(F)c1ncc(-c2ccc3c(c2)OC(F)(F)O3)cc1Cl)c1ccccc1C(F)(F)F [Example 25]        4.18
2  CS(=O)(=O)c1ccc(-c2cnc(C(F)(F)CNC(=O)c3ccccc3C(F)(F)F)c(Cl)c2)cc1 [Example 33]        2.65

Which chromatographic logP is reported for this molecule? CN(C)c1ccc(-c2cnc(C(F)(F)CNC(=O)c3ccccc3C(F)(F)F)c(Cl)c2)cc1 [Example 17]
4.09
